# IC (total growth inhibition) per record follows
- Test system: IGROV
- assay_name: Inhibition of cell growth by colorimetric SRB assay, IGROV
- Assay type: cell-based
- measurement_setup: Homo sapiens, 48 hours exposure, total growth inhibition, read-out: TGI
Enter your answer as a number in µM; do not include the unit.

molecular_string | IC (total growth inhibition) / µM
C/C=C\[C@H](C)[C@H]1O[C@@]1(C)[C@@H](O)[C@@H](CO)C(=O)[C@@H](CO)[C@@H](O)CC(=O)CC | 3.57
C/C=C\[C@H](C)[C@H]1O[C@@]1(C)[C@@H](O)[C@@H](COC(C)=O)C(=O)[C@H](CO)[C@@H](O)CC(=O)CC | 0.528

Moving on to the next compound.
Q) Report IC (total growth inhibition) for C/C=C\[C@H](C)[C@H]1O[C@@]1(C)[C@@H](O)[C@@H](CO)C(=O)[C@H](CO)[C@@H](O)CC(=O)CC
A) 0.376

----------
- System: PANC-1
- assay_name: Inhibition of cell growth by colorimetric SRB assay, PANC-1
- Type: cell-based
- measurement_setup: Homo sapiens; PANC-1; 48 hours exposure; cell killing; read-out: LC50 (the source's name)
attribute_measured: CC50 (µM)
Write the number in µM without appending the unit.

compound | subject_of_test | measured
C/C=C\[C@H](C)[C@H]1OC1(C)[C@@H](O[Si](C)(C)C(C)(C)C)[C@@H](CO[Si](C)(C)C(C)(C)C)C(=O)[C@H](CO[Si](C)(C)C(C)(C)C)[C@@H](CC(=O)CC)O[Si](C)(C)C(C)(C)C (stereo partly drawn) [Compound 19b] | PANC-1 | 12
C/C=C\[C@H](C)[C@H]1O[C@@]1(C)[C@@H](O)[C@@H](CO)C(=O)[C@H](CO)[C@@H](O)CC(=O)CC | PANC-1 | 26.8

Continue with the next compound.
Q) Output measured CC50 for this item: C/C=C\[C@H](C)[C@H]1O[C@@]1(C)[C@@H](O)[C@@H](COC(C)=O)C(=O)[C@H](CO)[C@@H](O)CC(=O)CC
A) 19.5

----------
- Test system: DU-145
- assay_name: Inhibition of cell growth by colorimetric SRB assay, DU-145
- Type: cell-based
- measurement_setup: Homo sapiens; DU-145; 48 hours exposure; total growth inhibition; read-out: TGI
attribute_measured: IC (total growth inhibition)

Here's what some known entries look like.
compound | IC (total growth inhibition)
C/C=C\[C@H](C)[C@H]1OC1(C)[C@@H](O[Si](C)(C)C(C)(C)C)[C@@H](COC(C)=O)C(=O)[C@H](CO)[C@@H](O)CC(=O)CC (stereo partly drawn) | 18.9 µM
C/C=C\[C@H](C)[C@H]1OC1(C)[C@@H](O[Si](C)(C)C(C)(C)C)[C@@H](CO)C(=O)[C@@H](CO)[C@H](O)CC(=O)CC (stereo partly drawn) [31b + 31d] | 20.5 µM

Could you now consider this next compound?
Q) Check the records and state IC (total growth inhibition) for C=C(C(=O)[C@H](COC(C)=O)[C@H](O)C1(C)O[C@@H]1[C@@H](C)/C=C\C)[C@@H](O)CC(=O)CC (stereo partly drawn)
A) 10.2 µM

----------
- Tested on: PANC-1
- assay_name: Inhibition of cell growth by colorimetric SRB assay, PANC-1
- Format: cell-based
- measurement_setup: Homo sapiens; PANC-1; 48 hours exposure; total growth inhibition; read-out: TGI
Listing: IC (total growth inhibition) of selected compounds
Write down the numeric answer in µM and omit the unit.

Sample records with IC (total growth inhibition):
compound | IC (total growth inhibition), µM
C/C=C\[C@H](C)[C@H]1OC1(C)[C@@H](O)[C@@H](CO)C(=O)[C@@H](CO)[C@H](O)CC(=O)CC (some centres unmarked) | 26.8
C/C=C\[C@H](C)[C@H]1OC1(C)[C@@H](O[Si](C)(C)C(C)(C)C)[C@@H](CO[Si](C)(C)C(C)(C)C)C(=O)[C@@H](CO[Si](C)(C)C(C)(C)C)[C@@H](CC(=O)CC)O[Si](C)(C)C(C)(C)C (some centres unmarked) [Compound 30b] | 12.1
C/C=C\[C@H](C)[C@H]1OC1(C)[C@@H](O[Si](C)(C)C(C)(C)C)[C@@H](COC(C)=O)C(=O)[C@H](CO)[C@H](O)CC(=O)CC (some centres unmarked) | 7.02

Q) Given the compound C/C=C\[C@H](C)[C@H]1OC1(C)[C@@H](O[Si](C)(C)C(C)(C)C)[C@@H](COC(C)=O)C(=O)[C@H](COC(C)=O)[C@@H](CC(=O)CC)OC(C)=O (some centres unmarked) , write its reported IC (total growth inhibition).
A) 16.3

Q) Return IC (total growth inhibition) for the following compound: C/C=C\[C@H](C)[C@H]1OC1(C)[C@@H](O[Si](C)(C)C(C)(C)C)[C@@H](CO)C(=O)[C@H](CO)[C@H](O)CC(=O)CC (some centres unmarked) [20b + 20d]
A) 20.5

Q) Dear colleague, please send me the reported IC (total growth inhibition) for C/C=C\[C@H](C)[C@H]1OC1(C)[C@@H](O[Si](C)(C)C(C)(C)C)[C@@H](CO[Si](C)(C)C(C)(C)C)C(=O)[C@@H](CO[Si](C)(C)C(C)(C)C)[C@H](CC(=O)CC)O[Si](C)(C)C(C)(C)C (some centres unmarked) [Compound 30a] when you can.
A) 12.1

Q) Given the compound C/C=C\[C@H](C)[C@H]1O[C@@]1(C)[C@@H](O)[C@@H](CO)C(=O)[C@H](CO)[C@@H](O)CC(=O)CC , write its reported IC (total growth inhibition).
A) 2.95

Q) Give the reported IC (total growth inhibition) for this compound. C=C(C(=O)[C@H](COC(C)=O)[C@H](O)C1(C)O[C@@H]1[C@@H](C)/C=C\C)[C@@H](O)CC(=O)CC (some centres unmarked)
A) 8.4

Q) Answer with the recorded IC (total growth inhibition) for the compound listed here: C/C=C\[C@H](C)[C@H]1OC1(C)[C@@H](O[Si](C)(C)C(C)(C)C)[C@@H](CO)C(=O)[C@H](CO)[C@@H](O)CC(=O)CC (some centres unmarked) [20a + 20c]
A) 20.5

Q) # return recorded IC (total growth inhibition) for entry C/C=C\[C@H](C)[C@H]1OC1(C)[C@@H](O[Si](C)(C)C(C)(C)C)[C@@H](CO[Si](C)(C)C(C)(C)C)C(=O)[C@H](CO[Si](C)(C)C(C)(C)C)[C@@H](CC(=O)CC)O[Si](C)(C)C(C)(C)C (some centres unmarked) [Compound 19b]
A) 12

Q) For the compound C/C=C\[C@H](C)[C@H]1OC1(C)[C@@H](O[Si](C)(C)C(C)(C)C)[C@@H](COC(C)=O)C(=O)[C@H](COC(C)=O)[C@H](O)CC(=O)CC (some centres unmarked) , give its reported IC (total growth inhibition).
A) 7.2
